Recorded values, source ChEMBL document CHEMBL1687837.

Reported kcat values for a set of compounds
system: Escherichia coli; assay: Activity of Escherichia coli beta-lactamase Toho-1 G232A mutant assessed as compound hydrolysis by spectrophotometry
Form entry: value (s⁻¹) — number only.

Example results:
CO/N=C(\C(=O)N[C@@H]1C(=O)N2C(C(=O)O)=C(CSc3cnns3)CS[C@H]12)c1csc(N)n1    630
CO/N=C(\C(=O)N[C@@H]1C(=O)N2C(C(=O)O)=C(COC(C)=O)CS[C@H]12)c1csc(N)n1    440
CC(=O)OCC1=C(C(=O)O)N2C(=O)[C@@H](NC(=O)Cc3cccs3)[C@H]2SC1    620
O=C(Cc1cccs1)N[C@@H]1C(=O)N2C(C(=O)[O-])=C(C[n+]3ccccc3)CS[C@H]12    440

Query: kcat; subject: `CC1(C)S[C@@H]2[C@H](NC(=O)[C@H](N)c3ccccc3)C(=O)N2[C@H]1C(=O)O`
37

Need kcat of `C[C@H]1[C@H](NC(=O)/C(=N\OC(C)(C)C(=O)O)c2csc(N)n2)C(=O)N1S(=O)(=O)O` , thanks.
6.7

###

tested on: Escherichia coli; test: Antibacterial activity against Escherichia coli AS226 carrying pBSDD240A mutant after 18 hrs by broth microdilution method; assay type: functional; settings: AS226, 18 h
Quantity kind: MIC (µg/mL)
Quick reminder: number only, in µg/mL, skip the unit.

Data request, read-out MIC, for `CO/N=C(\C(=O)N[C@@H]1C(=O)N2C(C(=O)O)=C(CSc3cnns3)CS[C@H]12)c1csc(N)n1`
1020

###

Parameter MIC: see the listing below.
tested on: Escherichia coli; assay: Antibacterial activity against Escherichia coli AS226 carrying pBSD-H2 after 18 hrs by broth microdilution method; format: functional; settings: AS226, 18 h
Your answer is read as µg/mL, so omit the unit and give the number.

Please review the entries below; each comes with its answer.
C[C@H]1[C@H](NC(=O)/C(=N\OC(C)(C)C(=O)O)c2csc(N)n2)C(=O)N1S(=O)(=O)O    64
CO/N=C(\C(=O)N[C@@H]1C(=O)N2C(C(=O)O)=C(CSc3cnns3)CS[C@H]12)c1csc(N)n1    2050

Next molecule, MIC to be filled in.
Which MIC value belongs to `CC(C)(O/N=C(\C(=O)N[C@@H]1C(=O)N2C(C(=O)[O-])=C(C[n+]3ccccc3)CS[C@H]12)c1csc(N)n1)C(=O)O` ?
0.25

###

system: Escherichia coli; experiment: Antibacterial activity against Escherichia coli AS226 carrying pBSD-H2 after 18 hrs by broth microdilution method; type: functional; conditions: AS226, 18 h
Quantity kind: MIC (µg/mL)
Unit µg/mL implied. Number only.

O=C(Cc1cccs1)N[C@@H]1C(=O)N2C(C(=O)[O-])=C(C[n+]3ccccc3)CS[C@H]12 [CEPHALORIDINE]    1020
CO[C@@]1(NC(=O)Cc2cccs2)C(=O)N2C(C(=O)O)=C(COC(N)=O)CS[C@@H]21 [CEFOXITIN]    1
CC(=O)OCC1=C(C(=O)O)N2C(=O)[C@@H](NC(=O)Cc3cccs3)[C@H]2SC1 [CEPHALOTHIN]    2050

Tell me the measured MIC of CO/N=C(\C(=O)N[C@@H]1C(=O)N2C(C(=O)O)=C(COC(C)=O)CS[C@H]12)c1csc(N)n1 [CEFOTAXIME] , please.
256

Field request: MIC | item: CC1(C)S[C@@H]2[C@H](NC(=O)[C@H](N)c3ccccc3)C(=O)N2[C@H]1C(=O)O [AMPICILLIN]
256

###

tested on: Escherichia coli; assay: Antibacterial activity against Escherichia coli AS226 carrying pBSDD240A mutant after 18 hrs by broth microdilution method; format: functional; settings: AS226, 18 h
Reported MIC values follow for various compounds
Write it as a number; the unit µg/mL goes unstated.

CC(=O)OCC1=C(C(=O)O)N2C(=O)[C@@H](NC(=O)Cc3cccs3)[C@H]2SC1    2050
CC1(C)S[C@@H]2[C@H](NC(=O)[C@H](N)c3ccccc3)C(=O)N2[C@H]1C(=O)O    512
C[C@@H](O)[C@H]1C(=O)N2C(C(=O)O)=C(SCCNC=N)C[C@H]12 [IMIPENEM ANHYDROUS]    0.125

Looking for the measured MIC of `CC(C)(O/N=C(\C(=O)N[C@@H]1C(=O)N2C(C(=O)[O-])=C(C[n+]3ccccc3)CS[C@H]12)c1csc(N)n1)C(=O)O` , can you help?
8

###

system: Escherichia coli; assay: Ratio of Kcat to Km for Escherichia coli beta-lactamase Toho-1 C69A mutant assessed as compound hydrolysis by spectrophotometry
Quantity kind: kcat/Km (×10⁶ /s/M)
All answers are understood in ×10⁶ /s/M, so give the number only.

Take a look at these entries with their results.
CC(=O)OCC1=C(C(=O)O)N2C(=O)[C@@H](NC(=O)Cc3cccs3)[C@H]2SC1    4
O=C(Cc1cccs1)N[C@@H]1C(=O)N2C(C(=O)[O-])=C(C[n+]3ccccc3)CS[C@H]12    1
CC1(C)S[C@@H]2[C@H](NC(=O)[C@H](N)c3ccccc3)C(=O)N2[C@H]1C(=O)O    1.9
CO/N=C(\C(=O)N[C@@H]1C(=O)N2C(C(=O)O)=C(COC(C)=O)CS[C@H]12)c1csc(N)n1    1

Form field: reported kcat/Km of `CO/N=C(\C(=O)N[C@@H]1C(=O)N2C(C(=O)O)=C(CSc3cnns3)CS[C@H]12)c1csc(N)n1`
2.3

###

test system: Escherichia coli; assay: Activity of Escherichia coli beta-lactamase Toho-1 D240A mutant assessed as compound hydrolysis by spectrophotometry
Quantity kind: kcat (s⁻¹)
# number only, unit s⁻¹ dropped from output

Example entries begin here.
CO/N=C(\C(=O)N[C@@H]1C(=O)N2C(C(=O)O)=C(COC(C)=O)CS[C@H]12)c1csc(N)n1 [CEFOTAXIME]    440
O=C(Cc1cccs1)N[C@@H]1C(=O)N2C(C(=O)[O-])=C(C[n+]3ccccc3)CS[C@H]12 [CEPHALORIDINE]    140
CC(=O)OCC1=C(C(=O)O)N2C(=O)[C@@H](NC(=O)Cc3cccs3)[C@H]2SC1 [CEPHALOTHIN]    320

Quick check: kcat of CO/N=C(\C(=O)N[C@@H]1C(=O)N2C(C(=O)O)=C(CSc3cnns3)CS[C@H]12)c1csc(N)n1 [CEFUZONAM] ?
550

Name the recorded kcat for C[C@H]1[C@H](NC(=O)/C(=N\OC(C)(C)C(=O)O)c2csc(N)n2)C(=O)N1S(=O)(=O)O [AZTREONAM] .
15

Dear colleague, I am looking for the recorded kcat of the following compound: CC1(C)S[C@@H]2[C@H](NC(=O)[C@H](N)c3ccccc3)C(=O)N2[C@H]1C(=O)O [AMPICILLIN]
27

###

test system: Escherichia coli; test: Activity of Escherichia coli beta-lactamase Toho-1 D240A mutant assessed as compound hydrolysis by spectrophotometry
Response field label takes fulfilled when Km is strictly below 100 µM and not fulfilled in all other cases.

Example entries and their recorded answers appear below.
CO/N=C(\C(=O)N[C@@H]1C(=O)N2C(C(=O)O)=C(CSc3cnns3)CS[C@H]12)c1csc(N)n1    not fulfilled
CC1(C)S[C@@H]2[C@H](NC(=O)[C@H](N)c3ccccc3)C(=O)N2[C@H]1C(=O)O    fulfilled
CO/N=C(\C(=O)N[C@@H]1C(=O)N2C(C(=O)O)=C(COC(C)=O)CS[C@H]12)c1csc(N)n1    not fulfilled

From here, focus on the item given below.
Problem: For the compound `O=C(Cc1cccs1)N[C@@H]1C(=O)N2C(C(=O)[O-])=C(C[n+]3ccccc3)CS[C@H]12` , is Km under 100 µM?
not fulfilled

###

test system: Escherichia coli; assay: Ratio of Kcat to Km for Escherichia coli beta-lactamase Toho-1 […] mutant assessed as compound hydrolysis by spectrophotometry
Quantity kind: kcat/Km (×10⁶ /s/M)
Response body: numeric value in ×10⁶ /s/M, unit text excluded.

CC(=O)OCC1=C(C(=O)O)N2C(=O)[C@@H](NC(=O)Cc3cccs3)[C@H]2SC1 [CEPHALOTHIN]    4.8
CC1(C)S[C@@H]2[C@H](NC(=O)[C@H](N)c3ccccc3)C(=O)N2[C@H]1C(=O)O [AMPICILLIN]    2.5

--- query ---
Fill in: kcat/Km of O=C(Cc1cccs1)N[C@@H]1C(=O)N2C(C(=O)[O-])=C(C[n+]3ccccc3)CS[C@H]12 [CEPHALORIDINE] is ___
1.2

###

tested on: Escherichia coli; assay: Ratio of Kcat to Km for Escherichia coli beta-lactamase Toho-1 N104D mutant assessed as compound hydrolysis by spectrophotometry
Listed molecules paired with reported kcat/Km
Numbers only; they are read as ×10⁶ /s/M.

CC1(C)S[C@@H]2[C@H](NC(=O)[C@H](N)c3ccccc3)C(=O)N2[C@H]1C(=O)O    1.1

GET /values?readout=kcat/Km&item= `CC(=O)OCC1=C(C(=O)O)N2C(=O)[C@@H](NC(=O)Cc3cccs3)[C@H]2SC1`
2.8
